target: IDH1 R132C (Homo sapiens, UniProt O75874, R132C); assay: Mutant IDH1 enzyme assay (diaphorase/resazurin), IDH1 R132C; conditions: mean ± SD of at least three determinations
Sequence (O75874 whole entry R132C): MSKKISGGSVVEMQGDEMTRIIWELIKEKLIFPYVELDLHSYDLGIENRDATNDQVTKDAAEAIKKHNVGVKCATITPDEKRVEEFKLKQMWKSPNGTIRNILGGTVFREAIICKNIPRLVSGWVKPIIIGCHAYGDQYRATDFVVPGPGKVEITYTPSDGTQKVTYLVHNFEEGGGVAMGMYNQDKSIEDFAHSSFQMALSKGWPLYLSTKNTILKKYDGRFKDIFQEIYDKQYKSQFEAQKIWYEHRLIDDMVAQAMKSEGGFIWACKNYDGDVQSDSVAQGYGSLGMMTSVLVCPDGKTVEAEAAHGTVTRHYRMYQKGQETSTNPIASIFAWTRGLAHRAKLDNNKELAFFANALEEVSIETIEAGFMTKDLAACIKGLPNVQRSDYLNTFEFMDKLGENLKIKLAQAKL
pIC50: −log10 of the molar value.
OBSERVATION_TYPE: pIC50

(A) C[C@H](Nc1ccc(C#N)n(C)c1=O)c1cc2cc(F)ccc2[nH]c1=O [(S)-3]
(B) C[C@H](Nc1ccc(C#N)n(C)c1=O)c1cc2cc(I)ccc2[nH]c1=O [(S)-2]
Hi team, can someone confirm which has the larger pIC50: A or B ? Thanks. # answer = label of selected item
B
(B: 6.80, A: 6.24)
